- Test system: Clostridium difficile clinical isolate growth, OD600, 24 h
- Test: growth modulation of Clostridium difficile isolate – OD600, 9-point, retest, dose response (AID 1224920);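 further: inhibitors lower culture turbidity so OD600 falls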
Recorded metric: pIC50
Please express pIC50 as -log10 of the molar concentration.

Value of pIC50 reported for the compound COc1cccc(-c2ccc3c(c2)[C@H]2[C@H](CCN2Cc2ccccc2OC)[C@H](CO)N3)c1 is 4.25

Value of pIC50 reported for the compound COc1ccc(C#Cc2ccc([C@@H]3[C@@H](CO)N4CCCCN(Cc5ccccc5F)C[C@@H]34)cc2)cc1 is 4.59

Value of pIC50 reported for the compound COc1cccc(-c2ccc(C3[C@@H]4CN(Cc5ccccn5)C[C@H]3N4)cc2)c1 (some centres undefined) is 4.04

Value of pIC50 reported for the compound O=C(Nc1ccc(F)cc1)N1CCCCN2[C@H](CO)[C@H](c3ccc(-c4ccccc4F)cc3)[C@H]2C1 is 4.25

---

- Test system: Clostridium difficile clinical isolate growth, OD600, 24 h
- Test: growth modulation of Clostridium difficile isolate – OD600, 9-point, retest, dose response (AID 1224920);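 further: inhibitors lower culture turbidity so OD600 falls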
Recorded metric: pIC50
Please express pIC50 as -log10 of the molar concentration.

Value of pIC50 reported for the compound Cc1ccccc1-c1ccc(C2[C@@H]3CN(Cc4cocn4)C[C@H]2N3)cc1 (some centres not stated) is 4.34

Value of pIC50 reported for the compound O=C(Nc1cccc(F)c1)N1CCCCN2[C@H](CO)[C@@H](c3ccc(-c4ccccc4F)cc3)[C@H]2C1 is 4.53

Value of pIC50 reported for the compound O=S(=O)(c1ccccc1)N1C[C@@H]2N[C@H](C1)C2c1ccc(-c2ccc(F)cc2)cc1 (some centres not stated) is 4.29

Value of pIC50 reported for the compound Cc1ccc(S(=O)(=O)N2[C@@H]3CNC[C@H]2C3c2ccc(-c3cccc(C)c3)cc2)cc1 (some centres not stated) is 4.49

Value of pIC50 reported for the compound O=C(C[C@H]1CC[C@H]2[C@@H](COC[C@H](O)CN2C(=O)Nc2ccc(Cl)c(Cl)c2)O1)NC1CCC1 is 5.44

Value of pIC50 reported for the compound O=C(C1CCC1)N1C[C@@H]2N[C@H](C1)C2c1ccc(/C=C/c2ccccc2)cc1 (some centres not stated) is 4.13

Value of pIC50 reported for the compound COc1ccc(C#Cc2ccc([C@@H]3[C@@H](CO)N4CCCCN(Cc5ccccc5F)C[C@H]34)cc2)cc1 is 5.14

Value of pIC50 reported for the compound O=C(c1cccc(F)c1)N1CCCCN2[C@H](CO)[C@H](c3ccc(/C=C/c4ccccc4)cc3)[C@H]2C1 is 3.85

Value of pIC50 reported for the compound O=S(=O)(Cc1ccccc1)N1CCCCN2[C@H](CO)[C@H](c3ccc(-c4ccc(F)cc4)cc3)[C@H]2C1 is 4.37

Value of pIC50 reported for the compound Cc1ccc(-c2ccc([C@@H]3[C@@H](CO)N4CCCCN(C(=O)c5ccc(F)cc5)C[C@H]34)cc2)cc1 is 4.46

Value of pIC50 reported for the compound O=C(C[C@H]1CC[C@H]2[C@@H](COC[C@@H](O)CN2C(=O)Nc2cc(Cl)cc(Cl)c2)O1)N1CCOCC1 is 4.54

Value of pIC50 reported for the compound Fc1ccc(F)c(CN2[C@@H]3CNC[C@H]2C3c2ccc(-c3ccccc3)cc2)c1 (some centres not stated) is 4.35

Value of pIC50 reported for the compound O=C(C1CCCC1)N1C[C@@H]2N[C@H](C1)C2c1ccc(/C=C/c2ccccc2)cc1 (some centres not stated) is 4.52

Value of pIC50 reported for the compound COc1ccccc1-c1ccc(C2[C@@H]3CN(S(=O)(=O)c4ccccc4C)C[C@H]2N3)cc1 (some centres not stated) is 4.55

Value of pIC50 reported for the compound O=C(C[C@@H]1CC[C@@H]2[C@H](COC[C@H](O)CN2C(=O)Nc2ccc(C(F)(F)F)cc2)O1)NC1Cc2ccccc2C1 is 4.76

Value of pIC50 reported for the compound COc1cccc(CN2[C@@H]3CNC[C@H]2C3c2ccc(-c3cccc(OC)c3)cc2)c1 (some centres not stated) is 4.88

Value of pIC50 reported for the compound O=C(NC[C@@H]1N[C@@H](CO)[C@H]1c1ccc(C2=CCCCC2)cc1)c1cccc(F)c1 is 4.95

---

Can you tell me pIC50 for the items I'm about to list?
- System: Clostridium difficile clinical isolate growth, OD600, 24 h
- Test: growth modulation of Clostridium difficile isolate – OD600, 9-point, retest, dose response (AID 1224920);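 further: inhibitors lower culture turbidity so OD600 falls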
Please express pIC50 as -log10 of the molar concentration.

Value of pIC50 reported for the compound Fc1cccc(-c2ccc([C@@H]3[C@@H]4CN(Cc5nccs5)C[C@H]3N4)cc2)c1 is 4.18

Value of pIC50 reported for the compound COc1cccc(S(=O)(=O)N2C[C@@H]3N[C@H](C2)C3c2ccc(-c3ccccc3F)cc2)c1 (stereo partly drawn) is 4.58

Value of pIC50 reported for the compound COc1ccc(S(=O)(=O)N2CCCCN3[C@@H](CO)[C@@H](c4ccc(C#CCC(C)C)cc4)[C@@H]3C2)cc1 is 4.87

Value of pIC50 reported for the compound Cc1cccc(-c2ccc(C3[C@@H]4CN(Cc5ccccc5F)C[C@H]3N4)cc2)c1 (stereo partly drawn) is 5.21

Value of pIC50 reported for the compound Cc1ccc(-c2ccc([C@H]3[C@@H](CO)N4CCCCN(C(=O)Nc5cccc(F)c5)C[C@H]34)cc2)cc1 is 5.35

Value of pIC50 reported for the compound OC[C@@H]1[C@@H](c2ccc(C#CC3CCCC3)cc2)[C@H]2CN(CCC(F)(F)F)CCCCN12 is 4.57

Value of pIC50 reported for the compound O=C(Nc1cccc(F)c1)N1CCCCN2[C@@H](CO)[C@@H](c3ccc(C#CC4CC4)cc3)[C@@H]2C1 is 4.45

Value of pIC50 reported for the compound COc1cc(CN2[C@@H]3CNC[C@H]2C3c2ccc(-c3ccccc3)cc2)cc(OC)c1 (stereo partly drawn) is 4.83

---

- System: Clostridium difficile clinical isolate growth, OD600, 24 h
- Test: growth modulation of Clostridium difficile isolate – OD600, 9-point, retest, dose response (AID 1224920);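 further: inhibitors lower culture turbidity so OD600 falls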
Calls of active or inactive are those of the source.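 Rule for the calls: active = IC50 no higher than ten times the top tested dose; inconclusive = flat fit with 30 to 70% inhibition, or poor fit; inactive = IC50 above ten times the top dose.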
Mark one answer only. Choices: Y (active), N (inactive)

Q. Hello, I am checking results. What call was entered for Cc1cccc(-c2ccc(C3[C@H]4CNC[C@@H]3N4C(=O)Nc3ccccc3Cl)cc2)c1 (stereo partly drawn) ?
A. Y

Q. Hello, I am checking results. What call was entered for O=C(Nc1cccc(F)c1)N1CCCCN2[C@@H](CO)[C@H](c3ccc(-c4ccccc4F)cc3)[C@@H]2C1 ?
A. Y

Q. Hello, I am checking results. What call was entered for OC[C@@H]1Nc2ccc(-c3ccc(F)cc3)cc2[C@@H]2[C@H]1CCN2Cc1ccc(F)cc1 ?
A. Y

Q. Hello, I am checking results. What call was entered for N#Cc1ccc(-c2ccc([C@@H]3[C@H]4CNC[C@@H]3N4Cc3ccc4c(c3)OCO4)cc2)cc1 ?
A. Y

Q. Hello, I am checking results. What call was entered for COc1ccc(C#Cc2ccc([C@@H]3[C@H](CO)N4CCCCN(C(=O)Nc5ccc(F)cc5)C[C@@H]34)cc2)cc1 ?
A. Y

Q. Hello, I am checking results. What call was entered for Cc1ccc(-c2ccc([C@@H]3[C@H](CO)N4CCCCN(C(=O)Nc5ccccc5)C[C@@H]34)cc2)cc1 ?
A. Y

Q. Hello, I am checking results. What call was entered for CCCC#Cc1ccc([C@H]2[C@H](CO)N3CCCCN(S(=O)(=O)c4ccccc4C)C[C@@H]23)cc1 ?
A. N

Q. Hello, I am checking results. What call was entered for C[C@@H]1CN([C@@H](C)CO)C(=O)c2cccc(NC(=O)Nc3ccc(C(F)(F)F)cc3)c2O[C@H]1CN(C)C(=O)Nc1ccc(C(F)(F)F)cc1 ?
A. Y

Q. Hello, I am checking results. What call was entered for O=C(NC1CCCCC1)N1C[C@@H]2N[C@H](C1)C2c1ccc(-c2ccc(F)cc2)cc1 (stereo partly drawn) ?
A. Y

Q. Hello, I am checking results. What call was entered for O=C(NC1CCCCC1)N1C[C@@H]2N[C@H](C1)C2c1ccc(-c2cccc(F)c2)cc1 (stereo partly drawn) ?
A. Y

Q. Hello, I am checking results. What call was entered for COc1ccccc1CN1CC[C@@H]2[C@H]1c1cc(C3=CCCCC3)ccc1N[C@@H]2CO ?
A. Y

Q. Hello, I am checking results. What call was entered for COc1cccc(S(=O)(=O)N2C[C@@H]3N[C@H](C2)C3c2ccc(/C=C/c3ccccc3)cc2)c1 (stereo partly drawn) ?
A. Y

Q. Hello, I am checking results. What call was entered for COc1ccccc1C#Cc1ccc2c(c1)[C@@H]1[C@@H](CCN1C(=O)c1ccncc1)[C@@H](CO)N2 ?
A. N

Q. Hello, I am checking results. What call was entered for O=C(C[C@H]1CC[C@@H]2[C@H](COC[C@H](O)CN2C(=O)Nc2ccc(Cl)c(Cl)c2)O1)NC1CCC1 ?
A. Y

Q. Hello, I am checking results. What call was entered for O=C(Nc1ccccc1)N1CCCCN2[C@H](CO)[C@@H](c3ccc(C#Cc4ccccc4)cc3)[C@H]2C1 ?
A. Y

Q. Hello, I am checking results. What call was entered for COc1ccccc1CN1CC[C@@H]2[C@H]1c1cc(C#Cc3ccccc3)ccc1N[C@@H]2CO ?
A. Y

Q. Hello, I am checking results. What call was entered for COc1ccc(C#Cc2ccc([C@@H]3[C@@H](CO)N4CCCCN(C(=O)Nc5ccc(F)cc5)C[C@H]34)cc2)cc1 ?
A. Y

Q. Hello, I am checking results. What call was entered for O=C(Nc1ccccc1F)N1CCCCN2[C@H](CO)[C@@H](c3ccc(/C=C/c4ccccc4)cc3)[C@H]2C1 ?
A. Y

Q. Hello, I am checking results. What call was entered for CCNC(=O)C[C@@H]1CC[C@@H]2[C@H](COC[C@@H](O)CN2C(=O)Nc2ccc(C(F)(F)F)cc2)O1 ?
A. Y

Q. Hello, I am checking results. What call was entered for O=C(NC[C@@H]1N[C@@H](CO)[C@H]1c1ccc(C2=CCCCC2)cc1)c1ccccc1 ?
A. Y

Q. Hello, I am checking results. What call was entered for N#Cc1ccc(-c2ccc(C3[C@@H]4CN(C(=O)Nc5ccc(C(F)(F)F)cc5)C[C@H]3N4)cc2)cc1 (stereo partly drawn) ?
A. Y

Q. Hello, I am checking results. What call was entered for Cc1ccccc1-c1ccc(C2[C@H]3CNC[C@@H]2N3C(=O)Nc2ccc(C(F)(F)F)cc2)cc1 (stereo partly drawn) ?
A. Y

Q. Hello, I am checking results. What call was entered for Cc1ccc(S(=O)(=O)N2C[C@@H]3N[C@H](C2)C3c2ccc(/C=C/c3ccccc3)cc2)cc1 (stereo partly drawn) ?
A. Y

Q. Hello, I am checking results. What call was entered for O=C(C[C@H]1CC[C@@H]2[C@H](COC[C@@H](O)CN2C(=O)Nc2ccc(Cl)c(Cl)c2)O1)NCc1ccncc1 ?
A. Y

Q. Hello, I am checking results. What call was entered for COc1ccc(C#Cc2ccc([C@@H]3[C@H]4CN(Cc5ccccc5F)CCCCN4[C@H]3CO)cc2)cc1 ?
A. Y

Q. Hello, I am checking results. What call was entered for COc1ccc(C#Cc2ccc([C@H]3[C@H](CO)N4CCCCN(C(=O)Nc5cccc(F)c5)C[C@@H]34)cc2)cc1 ?
A. Y

Q. Hello, I am checking results. What call was entered for OC[C@H]1Nc2ccc(-c3ccc(F)cc3)cc2[C@H]2[C@@H]1CCN2Cc1ccc(F)cc1 ?
A. Y

Q. Hello, I am checking results. What call was entered for OC[C@@H]1Nc2ccc(C#Cc3cccc(F)c3)cc2[C@@H]2NCC[C@H]12 ?
A. Y

Q. Hello, I am checking results. What call was entered for O=C(C[C@@H]1CC[C@@H]2[C@H](COC[C@H](O)CN2C(=O)Nc2ccc(Cl)c(Cl)c2)O1)NC1CCC1 ?
A. Y

Q. Hello, I am checking results. What call was entered for Cc1cccc(-c2ccc(C3[C@H]4CNC[C@@H]3N4C(=O)Nc3ccc(F)cc3)cc2)c1 (stereo partly drawn) ?
A. Y

Q. Hello, I am checking results. What call was entered for COc1ccccc1C#Cc1ccc2c(c1)[C@H]1[C@H](CCN1C(=O)c1ccncc1)[C@H](CO)N2 ?
A. Y

Q. Hello, I am checking results. What call was entered for Cc1cccc(-c2ccc([C@@H]3[C@@H]4CN(C(=O)CN(C)C)C[C@H]3N4)cc2)c1 ?
A. Y

Q. Hello, I am checking results. What call was entered for Cc1cccc(S(=O)(=O)N2C[C@@H]3N[C@H](C2)C3c2ccc(-c3ccccc3C)cc2)c1 (stereo partly drawn) ?
A. Y
